Listing of entries alongside the reported tissue level at time at 4 h.
assay-overview: Kidney drug level after subcutaneous dose in mouse
Type: in vivo
test-settings: mouse, in vivo, sc, 17.2 mg/kg
Where a SMILES comes first, the peptide text is derived from it. Bridges are numbered along the chain shown (N, C = ends). [ ]: non-standard residue; d: D form. The star is where a group is joined. X3 = CC(C)c1cccc([C@@H](CN)CC(=O)*)c1; X4 = NC[C@@H](CC(=O)*)c1ccc(Cl)cc1; Dab = NCC[C@H](N)C(=O)O; Dap = NC[C@H](N)C(=O)O
value-type: tissue level at time at 4 h (ng/g)

>>> reported("CC(C)C[C@@H]1NC(=O)[C@@H](CC(C)C)NC(=O)[C@H](CCN)NC(=O)[C@@H](NC(=O)[C@H](CN)NC(=O)[C@@H](NC(=O)C[C@H](CN)c2cccc(C(C)C)c2)[C@@H](C)O)CCNC(=O)[C@H]([C@@H](C)O)NC(=O)[C@H](CCN)NC(=O)[C@H](CCN)NC1=O [Example 15] (X3-T[Dap][Dab][Dab][dL]L[Dab][Dab]T; lactam 3-C)")
443000
>>> reported("CC(C)C[C@@H]1NC(=O)[C@@H](Cc2ccccc2)NC(=O)[C@H](CCN)NC(=O)[C@@H](NC(=O)[C@H](CN)NC(=O)[C@@H](NC(=O)C[C@H](CN)c2ccc(Cl)cc2)[C@@H](C)O)CCNC(=O)[C@H]([C@@H](C)O)NC(=O)[C@H](CCN)NC(=O)[C@H](CCN)NC1=O [Example 1] (X4-T[Dap][Dab][Dab][dF]L[Dab][Dab]T; lactam 3-C)")
267000
>>> reported("CC(C)C[C@H]1NC(=O)[C@H](CCN)NC(=O)[C@@H](NC(=O)[C@H](CN)NC(=O)[C@@H](NC(=O)C[C@H](CN)c2cccc(C(C)C)c2)[C@@H](C)O)CCNC(=O)[C@H]([C@@H](C)O)NC(=O)[C@H](CCN)NC(=O)[C@H](CCN)NC(=O)[C@H]([C@@H](C)O)NC1=O [Example 19] (X3-T[Dap][Dab][Dab][dL]T[Dab][Dab]T; lactam 3-C)")
386000

====

assay-overview: Kidney drug level after subcutaneous dose in mouse
Format: in vivo
test-settings: mouse, in vivo; mice, 17.2 mg/kg free base sc, 4 h; read-out: 4 hr kidney level
*1 amine or outer side, *2 acyl side, *3 side chain or, on linkers, in order; H or OH if unused. Where a SMILES comes first, the peptide text is derived from it. Bridges are numbered along the chain shown (N, C = ends). [ ]: non-standard residue; d: D form. The star is where a group is joined. GABA(3S-Bn) = O=C(C[C@@H](CN[*:1])Cc1ccccc1)[*:2]; GABA(3R-Bn) = O=C(C[C@H](CN[*:1])Cc1ccccc1)[*:2]; X3 = CC(C)c1cccc([C@@H](CN)CC(=O)*)c1; X9 = CC(C)c1cccc([C@H](CN)CC(=O)*)c1; X1 = NC[C@@H](CC(=O)*)c1cccc(Cl)c1; Dab = NCC[C@H](N)C(=O)O; Abu = CC[C@H](N)C(=O)O; Dap = NC[C@H](N)C(=O)O
value-type: tissue level at time at 4 h (ng/g)

>>> reported("CC[C@@H]1NC(=O)[C@@H](CC(C)C)NC(=O)[C@H](CCN)NC(=O)[C@@H](NC(=O)[C@H](CN)NC(=O)[C@@H](NC(=O)C[C@H](CN)c2cccc(Cl)c2)[C@@H](C)O)CCNC(=O)[C@H]([C@@H](C)O)NC(=O)[C@H](CCN)NC(=O)[C@H](CCN)NC1=O [Example 23] (X1-T[Dap][Dab][Dab][dL][Abu][Dab][Dab]T; lactam 3-C)")
263000
>>> reported("CC[C@@H]1NC(=O)[C@@H](Cc2ccccc2)NC(=O)[C@H](CCN)NC(=O)[C@@H](NC(=O)[C@H](CN)NC(=O)[C@@H](NC(=O)C[C@@H](CN)c2cccc(C(C)C)c2)[C@@H](C)O)CCNC(=O)[C@H]([C@@H](C)O)NC(=O)[C@H](CCN)NC(=O)[C@H](CCN)NC1=O [Example 18] (X9-T[Dap][Dab][Dab][dF][Abu][Dab][Dab]T; lactam 3-C)")
535000
>>> reported("CC(C)C[C@@H]1NC(=O)[C@@H](Cc2ccccc2)NC(=O)[C@H](CCN)NC(=O)[C@@H](NC(=O)[C@H](CN)NC(=O)[C@@H](NC(=O)C[C@H](CN)Cc2ccccc2)[C@@H](C)O)CCNC(=O)[C@H]([C@@H](C)O)NC(=O)[C@H](CCN)NC(=O)[C@H](CCN)NC1=O [Example 9] ({GABA(3R-Bn)}-T[Dap][Dab][Dab][dF]L[Dab][Dab]T; lactam 3-C)")
159000
>>> reported("CC[C@@H]1NC(=O)[C@@H](Cc2ccccc2)NC(=O)[C@H](CCN)NC(=O)[C@@H](NC(=O)[C@H](CN)NC(=O)[C@@H](NC(=O)C[C@H](CN)c2cccc(C(C)C)c2)[C@@H](C)O)CCNC(=O)[C@H]([C@@H](C)O)NC(=O)[C@H](CCN)NC(=O)[C@H](CCN)NC1=O [Example 17] (X3-T[Dap][Dab][Dab][dF][Abu][Dab][Dab]T; lactam 3-C)")
231000
>>> reported("CC(C)C[C@@H]1NC(=O)[C@@H](Cc2ccccc2)NC(=O)[C@H](CCN)NC(=O)[C@@H](NC(=O)[C@H](CN)NC(=O)[C@@H](NC(=O)C[C@@H](CN)Cc2ccccc2)[C@@H](C)O)CCNC(=O)[C@H]([C@@H](C)O)NC(=O)[C@H](CCN)NC(=O)[C@H](CCN)NC1=O [Example 10] ({GABA(3S-Bn)}-T[Dap][Dab][Dab][dF]L[Dab][Dab]T; lactam 3-C)")
346000

====

Test system: K. pneumoniae ATCC 13822
Type: cell-based
test-settings: ATCC 13822
Where a SMILES comes first, the peptide text is derived from it. Bridges are numbered along the chain shown (N, C = ends). [ ]: non-standard residue; d: D form. The star is where a group is joined. X5 = NC[C@H](CC(=O)*)c1ccc(Cl)cc1; Dab = NCC[C@H](N)C(=O)O; Dap = NC[C@H](N)C(=O)O
value-type: MIC K. pneumoniae ATCC 13822

>>> reported("CC(C)C[C@@H]1NC(=O)[C@@H](Cc2ccccc2)NC(=O)[C@H](CCN)NC(=O)[C@@H](NC(=O)[C@H](CN)NC(=O)[C@@H](NC(=O)C[C@@H](CN)c2ccc(Cl)cc2)[C@@H](C)O)CCNC(=O)[C@H]([C@@H](C)O)NC(=O)[C@H](CCN)NC(=O)[C@H](CCN)NC1=O [Example 2] (X5-T[Dap][Dab][Dab][dF]L[Dab][Dab]T; lactam 3-C)")
"0.25 µg/mL"

====

Test system: K. pneumoniae ATCC 13822
Type: cell-based
test-settings: ATCC 13822
Where a SMILES comes first, the peptide text is derived from it. Bridges are numbered along the chain shown (N, C = ends). [ ]: non-standard residue; d: D form. The star is where a group is joined. X23 = NC[C@H](CC(=O)*)c1cccc(-c2ccsc2)c1; X16 = NC[C@H](CC(=O)*)Cc1cccc(Cl)c1; X8 = NC[C@@H](CC(=O)*)Cc1cccc(Cl)c1; Dab = NCC[C@H](N)C(=O)O; Abu = CC[C@H](N)C(=O)O; Dap = NC[C@H](N)C(=O)O
Listing of entries alongside the reported MIC K. pneumoniae ATCC 13822.
value-type: MIC K. pneumoniae ATCC 13822 (µg/mL)

>>> reported("CC(C)C[C@@H]1NC(=O)[C@@H](Cc2ccccc2)NC(=O)[C@H](CCN)NC(=O)[C@@H](NC(=O)[C@H](CN)NC(=O)[C@@H](NC(=O)C[C@H](CN)Cc2cccc(Cl)c2)[C@@H](C)O)CCNC(=O)[C@H]([C@@H](C)O)NC(=O)[C@H](CCN)NC(=O)[C@H](CCN)NC1=O [Example 11] (X8-T[Dap][Dab][Dab][dF]L[Dab][Dab]T; lactam 3-C)")
0.5
>>> reported("CC(C)C[C@@H]1NC(=O)[C@@H](Cc2ccccc2)NC(=O)[C@H](CCN)NC(=O)[C@@H](NC(=O)[C@H](CN)NC(=O)[C@@H](NC(=O)C[C@@H](CN)Cc2cccc(Cl)c2)[C@@H](C)O)CCNC(=O)[C@H]([C@@H](C)O)NC(=O)[C@H](CCN)NC(=O)[C@H](CCN)NC1=O [Example 12] (X16-T[Dap][Dab][Dab][dF]L[Dab][Dab]T; lactam 3-C)")
0.5
>>> reported("CC[C@@H]1NC(=O)[C@@H](CC(C)C)NC(=O)[C@H](CCN)NC(=O)[C@@H](NC(=O)[C@H](CN)NC(=O)[C@@H](NC(=O)C[C@@H](CN)c2cccc(-c3ccsc3)c2)[C@@H](C)O)CCNC(=O)[C@H]([C@@H](C)O)NC(=O)[C@H](CCN)NC(=O)[C@H](CCN)NC1=O [Example 31] (X23-T[Dap][Dab][Dab][dL][Abu][Dab][Dab]T; lactam 3-C)")
0.25
